Listed compounds paired with reported melting point
experimental_endpoint: melting point

| compound_structure_string | reading |
| --- | --- |
| COc1ccc(-c2cccc(C(=O)N3CCN(c4ccc(C(N)=O)cc4)CC3)n2)cc1OC | 237 to 240 °C |
| COc1ccc(-c2cccc(C(=O)N3CCN(c4ccc(NC(C)=O)cc4)CC3)n2)cc1OC | 201 to 203 °C |
| COc1ccc(-c2cccc(C(=O)N3CCN(c4ccc(NS(C)(=O)=O)cc4)CC3)n2)cc1OC | 168 to 170 °C |
| COc1ccc(-c2cccc(C(=O)N3CCN(c4ccc(OCc5cc[n+]([O-])cc5)cc4)CC3)n2)cc1OC | 182 to 183 °C |
| COc1ccc(-c2cccc(C(=O)N3CCN(c4ccc(C(C)=O)cc4)CC3)n2)cc1F | 168 to 170 °C |
| CCN(CC)CCC(=O)Nc1ccc(N2CCN(C(=O)c3cccc(-c4ccc(OC)c(OC)c4)n3)CC2)cc1 | 131 to 134 °C |
| COc1ccc(-c2cccc(C(=O)N3CCN(c4ccc(C(C)=O)cc4)CC3)n2)cc1OC(F)F | 160 to 162 °C |

Cited source for all entries: patent US7196080B2
